target: AKT2 (human) (UniProt P31751); experiment: radiometric filter-binding kinase assay, Kinase HotSpot; conditions: compound 0.5 µM; ATP 10 µM
Sequence (P31751 whole entry, looked up): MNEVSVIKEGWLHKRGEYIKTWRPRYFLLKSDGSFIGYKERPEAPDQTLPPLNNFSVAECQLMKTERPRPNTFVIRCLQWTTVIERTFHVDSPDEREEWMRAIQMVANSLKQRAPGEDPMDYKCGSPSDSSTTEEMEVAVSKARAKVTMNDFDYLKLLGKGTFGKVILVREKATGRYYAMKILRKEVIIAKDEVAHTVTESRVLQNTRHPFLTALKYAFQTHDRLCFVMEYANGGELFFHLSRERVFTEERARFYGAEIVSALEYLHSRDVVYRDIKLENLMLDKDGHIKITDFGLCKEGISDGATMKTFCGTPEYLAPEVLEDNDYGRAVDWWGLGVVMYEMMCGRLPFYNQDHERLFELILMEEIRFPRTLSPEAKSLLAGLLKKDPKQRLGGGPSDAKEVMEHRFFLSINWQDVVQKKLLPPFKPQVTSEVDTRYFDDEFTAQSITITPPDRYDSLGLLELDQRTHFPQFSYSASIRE
endpoint.name: residual activity (%)

CO[C@H]1CC2CC[C@@H](C)[C@@](O)(O2)C(=O)C(=O)N2CCCC[C@H]2C(=O)OC([C@H](C)C[C@@H]2CC[C@@H](O)[C@H](OC)C2)CC(=O)[C@H](C)/C=C(\C)[C@@H](O)[C@@H](OC)C(=O)[C@H](C)C[C@H](C)/C=C/C=C/C=C/1C (some centres undefined) | 96.1
COc1cc2ncnc(Nc3cccc(Cl)c3)c2cc1OC | 84.1
O=C1NC(=O)/C(=C/c2ccc3c(c2)OC(F)(F)O3)S1 | 96.2
O=C1NC(=O)c2c1c1c3ccccc3n3c1c1c2c2ccccc2n1C1CCC3O1 | 48.5
CC(C)N(CCC(=O)c1ccc2ccccc2c1)Cc1ccccc1 | 96.5
CCCC(=O)Oc1ccc2[nH]c(C(=O)c3cc4ccccc4[nH]3)cc2c1 | 105
CCN(CC)C(=O)c1ccc(Nc2nc(OCC3CCCCC3)c3nc[nH]c3n2)cc1 | 92
O=C1NC(=O)C(c2cn(CCCn3ccnc3)c3ccccc23)=C1Nc1ccccc1 | 92.3
O=c1cc(N2CCOCC2)oc2c1ccc1ccccc12 | 98.9
N#C/C(=C(/N)Sc1ccc(N)cc1)c1ccccc1C(F)(F)F | 102
c1ccc(-c2n[nH]cc2-c2ccnc3ccccc23)nc1 | 93
Cc1ccc(NC2=CC(=O)c3sc(C)nc3C2=O)cc1 | 91.3
c1ccc(-c2n[nH]c3c2oc2ccccc23)cc1 | 112
N#CC(C#N)=C(N)/C(C#N)=C/c1ccc(O)cc1 | 92.8
COc1ccc(COc2ccc(Cc3cnc(N)nc3N)cc2OC)cc1 | 102
O=C1Nc2ccc(Cl)cc2/C1=C/c1cc(Cl)c(O)c(Cl)c1 | 93.9
CC(=O)c1ccc(N2CCOCC2)cc1O | 96.2
O=C(Nc1cccc(Nc2nccc(Nc3cccc(C(F)(F)F)c3)n2)c1)C1CC1 | 107
CCC(=O)Nc1ccc2ncnc(Nc3cccc(Br)c3)c2c1 | 102
O=S(=O)(c1cccc2cnccc12)N1CCCNCC1 | 115
Nc1ncnc2c1c(-c1ccc(Oc3ccccc3)cc1)cn2C1CCCC1 | 99.7
CC[n+]1c(/C=C/N(C)c2ccccc2)n(-c2ccccc2)c2ccc(-c3nc4ccccc4s3)cc21 | 99.6
CNC(=O)c1cc(Oc2ccc(NC(=O)Nc3ccc(Cl)c(C(F)(F)F)c3)cc2)ccn1 | 103
Nc1ccc2ncnc(NCCc3ccc(Oc4ccccc4)cc3)c2c1 | 101
Cc1[nH]c(/C=C2\C(=O)Nc3ccc(S(=O)(=O)N(C)c4cccc(Cl)c4)cc32)c(C)c1C(=O)N1CCN(C)CC1 | 102
CCOC(=O)c1c(C)[nH]c(/C=C2\C(=O)Nc3ccccc32)c1C | 87.6
Cc1ccc(Nc2nccc(N(C)c3ccc4c(C)n(C)nc4c3)n2)cc1S(N)(=O)=O | 107
CCN(CC)CCNC(=O)c1c(C)[nH]c(/C=C2\C(=O)Nc3ccc(Cl)cc32)c1C | 86.9
Oc1cccc(-c2nc(N3CCOCC3)c3oc4ncccc4c3n2)c1 | 99.1
Cc1ccc(S(=O)(=O)/C=C/C#N)cc1 | 94.9
COc1ccc2c(c[n+](C)c3c4cc5c(cc4ccc23)OCO5)c1OC | 93.6
Nc1ncnc2[nH]nc(Nc3ccc(F)cc3)c12 | 108
Nc1cccc(-c2cc3c(Oc4cccc(O)c4)ncnc3[nH]2)c1 | 109
CNc1cc2c(Nc3cccc(Br)c3)ncnc2cn1 | 99.6
